Target: Tumor Necrosis Factor (TNF), Non-selective
Assay: Pharmacological profile: receptor binding assay
Text: Table 1 Pharmacological profile of SM-345431 (part 1) | column: IC50 (μm)
pIC50: −log10 of the molar value.

compound: CC(=O)c1cc2c(=O)c3c(C(=O)O)c(O)c(O)cc3oc2c(C(C)=O)c1-c1coc2cc(O)c(O)c(C(=O)O)c2c1=O [SM-345431, Vinaxanthone]
pIC50: < 5.00

====

Target protein (sequence): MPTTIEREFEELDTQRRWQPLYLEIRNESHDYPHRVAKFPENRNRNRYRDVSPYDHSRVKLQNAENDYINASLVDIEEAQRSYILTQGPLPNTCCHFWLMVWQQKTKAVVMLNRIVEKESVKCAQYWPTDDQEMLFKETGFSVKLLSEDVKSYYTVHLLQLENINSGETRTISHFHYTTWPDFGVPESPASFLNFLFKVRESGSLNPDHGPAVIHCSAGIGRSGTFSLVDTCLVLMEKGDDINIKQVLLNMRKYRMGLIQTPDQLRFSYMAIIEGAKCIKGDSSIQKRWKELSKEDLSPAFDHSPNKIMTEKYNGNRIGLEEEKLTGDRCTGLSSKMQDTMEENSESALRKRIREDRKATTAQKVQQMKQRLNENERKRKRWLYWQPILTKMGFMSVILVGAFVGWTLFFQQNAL

molecule: CC(=O)c1cc2c(=O)c3c(C(=O)O)c(O)c(O)cc3oc2c(C(C)=O)c1-c1coc2cc(O)c(O)c(C(=O)O)c2c1=O [SM-345431, Vinaxanthone]
IC50: > 10 µM

====

Molecular target: UniProtKB P51679
Sequence (P51679 1-360): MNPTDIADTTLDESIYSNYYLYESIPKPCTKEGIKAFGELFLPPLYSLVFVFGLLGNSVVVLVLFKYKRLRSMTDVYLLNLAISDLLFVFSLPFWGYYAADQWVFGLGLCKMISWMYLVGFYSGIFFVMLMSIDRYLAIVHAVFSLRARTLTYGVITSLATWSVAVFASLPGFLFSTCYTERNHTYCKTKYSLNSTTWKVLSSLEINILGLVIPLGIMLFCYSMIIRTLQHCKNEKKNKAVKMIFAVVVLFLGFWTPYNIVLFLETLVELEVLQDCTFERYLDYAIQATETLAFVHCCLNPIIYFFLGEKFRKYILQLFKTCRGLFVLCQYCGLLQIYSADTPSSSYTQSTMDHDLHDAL

compound: CC(=O)c1cc2c(=O)c3c(C(=O)O)c(O)c(O)cc3oc2c(C(C)=O)c1-c1coc2cc(O)c(O)c(C(=O)O)c2c1=O
IC50: > 10 µM

====

molecular target: Caspase 8 (Homo sapiens, UniProt Q14790)
Sequence (Q14790 217-374 limits assumed, species assumed): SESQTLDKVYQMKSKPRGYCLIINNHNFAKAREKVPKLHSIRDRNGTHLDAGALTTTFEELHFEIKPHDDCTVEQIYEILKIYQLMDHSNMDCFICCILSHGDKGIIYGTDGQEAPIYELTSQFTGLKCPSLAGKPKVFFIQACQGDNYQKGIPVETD
Sequence (Q14790 385-479 limits assumed, species assumed): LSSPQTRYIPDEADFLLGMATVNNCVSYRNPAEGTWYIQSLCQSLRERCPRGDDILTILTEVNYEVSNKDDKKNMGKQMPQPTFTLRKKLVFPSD
assay.endpoint: IC50

compound: CC(=O)c1cc2c(=O)c3c(C(=O)O)c(O)c(O)cc3oc2c(C(C)=O)c1-c1coc2cc(O)c(O)c(C(=O)O)c2c1=O [SM-345431, Vinaxanthone]
target.entity: Caspase 8 (Homo sapiens, UniProt Q14790)
assay.endpoint: IC50
reported.measurement: > 10 µM

====

biological target: Sphingomyelinase, Neutral (N-SMase); assay: Pharmacological profile: enzyme inhibition
pIC50: −log10 of the molar value.

molecule: CC(=O)c1cc2c(=O)c3c(C(=O)O)c(O)c(O)cc3oc2c(C(C)=O)c1-c1coc2cc(O)c(O)c(C(=O)O)c2c1=O [SM-345431, Vinaxanthone]
pIC50: < 5.00

All figures here come from paper PMC4008261.
